Data provenance is ChEMBL document CHEMBL5308541.

# Tested on: Plasmodium falciparum
# experiment: Primary screen in NF54 nanoGlo assay, in single point, at 2uM, 72h
# Format: functional, Erythrocyte
# assayConditions: timepoint 72 hour
About 540 (0.36%) of roughly 150,000 compounds showed an effect of 50% or more. The sample holds strong results, similar compounds and a random draw of the others, so the mix is not that of the screen.
observable: % Inhibition

molecule: CC(C)c1nc(N2CCC[C@@]3(CCNC3)C2)c2cc[nH]c2n1
observedMeasurement: 2%

molecule: Clc1ccc(CNCCN2CCC3(C2)OCCO3)c2ncccc12
observedMeasurement: -1%

molecule: Cc1ccc(CNc2ncnc(N)c2Cl)c(N2CCCC2)n1
observedMeasurement: 50%

molecule: Cc1ccc([C@@H](O)CNCc2cc(O)cc(Cl)c2)cc1
observedMeasurement: 7%

molecule: c1ccc(-c2cncnc2N2CC[C@]3(CCNC3)C2)cc1
observedMeasurement: -14%

molecule: CCc1nnc(NCc2ccc(C)nc2N2CCCC2)nc1CC
observedMeasurement: -19%
